Published Ki for Hepatocyte growth factor receptor (Homo sapiens, UniProt P08581), assembled from different documents, is shown next.

Some entries whose results are on file:
smilesRecord: Nc1ncc(-c2ccc(C3CCNCC3)s2)cc1-c1nnnn1-c1cccc(Cl)c1Cl
testTarget: Hepatocyte growth factor receptor (Homo sapiens, UniProt P08581)
Ki: ≤ 100 nM

smilesRecord: CC(=O)Nc1cccc(-c2cnc(N)c(-c3nnnn3-c3c(F)cccc3F)c2)c1
testTarget: Hepatocyte growth factor receptor (Homo sapiens, UniProt P08581)
Ki: 100 to 1000 nM

smilesRecord: C[C@@H](NC(=O)c1nc(-c2ccc(CN3CCCC3)cc2)cnc1N)c1nnc2ccc(-c3ccccc3)nn12
testTarget: Hepatocyte growth factor receptor (Homo sapiens, UniProt P08581)
Ki: ≤ 250 nM

smilesRecord: Cc1c(Cl)cccc1-n1nnnc1-c1cc(-c2cccnc2)cnc1N
testTarget: Hepatocyte growth factor receptor (Homo sapiens, UniProt P08581)
Ki: 100 to 1000 nM

smilesRecord: Nc1nn2cc(-c3ccc(N4CCN(c5cnccn5)CC4)nc3)cnc2c1-c1ccccn1
testTarget: Hepatocyte growth factor receptor (Homo sapiens, UniProt P08581)
Ki: 500 to 5000 nM

So what's the measured Ki for this one? Nc1ccccc1-c1cnc2c(-c3ccccn3)c(N)nn2c1
500 to 5000 nM

Would you mind telling me what Ki value was observed for Nc1ncc(-c2cnn([C@H]3CCNC3)c2)cc1-c1nnnn1-c1cccc(Cl)c1Cl ?
≤ 100 nM

State the recorded Ki for this entry: Nc1ncc(-c2cnn(CC(=O)O)c2)cc1-c1nnnn1-c1cccc(F)c1F
100 to 1000 nM
